# assay_protocol: CCTE_Shafer_MEA_acute_interburst_interval_mean: CCTE's Neural Acute Assay for Mean Interburst Interval, Shafer Lab (AID 2284016);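 also: percent change of mean interburst interval versus each well's own pre-dose baseline; curves fitted for decrease in interburst interval relative to DMSO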
Calls of active or inactive are those of the source. The calls were made as follows: active = hit-call score of the fitted dose curve at least 0.9, where 1 is the maximum; inactive = score below 0.9.
Labels: y (active), n (inactive)

>>> df
                                   molecule  class
0  COCc1nnc(-c2ccc[n+]([O-])c2)n1-c1c(Cl)c(Cl)cc2[nH]c(=O)c(=O)[nH]c12      y
1  c1ccc(C(O[C@@H]2CCCN(CCc3ccc4c(c3)OCO4)C2)c2ccccc2)cc1      y
2  CCCCC(CC)C(=O)OCCOCCOCCOC(=O)C(CC)CCCC (stereo not drawn)      n
3                                OCc1ccccc1      n
4                                OC(CCl)CCl      n
5  CCCCCCCC/C=C\CCCCCCCC(=O)OC[C@@H](O)[C@H]1OC[C@H](O)[C@H]1O      n
6  COc1cc(C(C)C)c2c(c1)S(=O)(=O)N(COc1cc(=O)n3cccc(OCCN4CCCCC4)c3n1)C2=O      n
7                Cn1c(=O)c2[nH]cnc2n(C)c1=O      n

Cited source for all entries: PubChem BioAssay (EPA / NIEHS)
